Tested on: PRMT1 (protein arginine N-methyltransferase 1)
ASSAY NAME: PRMT1 binders on small-molecule microarrays, primary screen, biochemical, small-molecule microarray, 635 nm fluorescence (AID 1088);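 also: binding of Prmt1 protein to compounds spotted on small-molecule microarray slides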
CONDITION CONTEXT: small-molecule microarray binding, higher = more signal
Label Satisfied when composite z-score is at or above 0.05; otherwise label Not satisfied.

Problem: Has "CCCCO[C@H]1C[C@H]2C(Br)=C[C@@]1(CO)C(=O)[C@]21CO1" a recorded composite z-score greater than or equal to 0.05?
Result: Satisfied

Problem: Another molecule to look at: "CO[C@@H]1COC(=O)CC=C[C@H](C)COC(=O)[C@H](Cc2ccccc2)NC(=O)CC=C[C@H]1C"
Result: Satisfied

Problem: // query: CC1CC/C=C\[C@H]2OC34C=CCN(Cn5nnc6ccccc65)C(=O)[C@H]3N(C(C)CO)C(=O)[C@@H]4C2C(=O)O1 (some centres undefined)
Result: Not satisfied

Problem: Quick one: "COC(=O)[C@@]1(Cc2ccccc2)[C@H]2c3cc(C(=O)N4CCCC4)n(CCN4CNCC4=O)c3C[C@H]2CN1C(=O)c1ccccc1"
Result: Not satisfied

Problem: Entry to check: "O=C/C=C/c1ccccc1Cl"
Result: Not satisfied

Problem: Param item: "C=C[C@H](OC)[C@@H](OC(=O)Nc1ccc(SC)cc1)c1ccc(O)c(F)c1"
Result: Satisfied

Problem: And "C=CC[C@]1(C(=O)O)N=C(c2ccc(OCCCO)cc2)O[C@H]1c1ccccc1N=[N+]=[N-]" ?
Result: Not satisfied

Problem: One more molecule: "C=CC[C@@]12N=C(c3ccc(OCCCO)cc3)O[C@@H]1c1ccccc1CN(Cc1ccccc1)C2=O"
Result: Satisfied

Problem: Try this molecule next: "CO[C@@H]1COC(=O)[C@H](C)NC(=O)CC=C[C@@H](C)[C@H](OC)COC(=O)[C@H](C)NC(=O)CC=C[C@H]1C"
Result: Satisfied
